Data provenance: patent US11667602B2

Test: Rat Hepatocyte Stability (Test E)
Assay type: in vitro ADME
Details: rat, hepatocytes, geometric mean if run multiple times
Readout: hepatocyte CLint (µL/min/1e6 cells)

Examples from the recorded data:
>  <Molecule>
CC1(CNC(=O)[C@H]2[C@@H]3CC[C@@H](C3)[C@H]2NC(=O)c2cc(O[C@H]3CC[C@@](C)(C(=O)O)CC3)c(F)cc2F)CCC1

>  <Recorded number>
12

$$$$
>  <Molecule>
CC1(CNC(=O)[C@H]2[C@@H]3CC[C@@H](C3)[C@H]2NC(=O)c2cc(O[C@H]3CC[C@@](C)(C(=O)O)CC3)c(C#N)cc2F)CCC1

>  <Recorded number>
17

$$$$
>  <Molecule>
COc1cc(F)c(-c2ccc(C(=O)O)cc2)cc1C(=O)N[C@@H]1[C@H](C(=O)Nc2cccc(S(=O)(=O)C(F)(F)F)c2)[C@H]2C=C[C@@H]1C2 (single isomer, unassigned)

>  <Recorded number>
18

$$$$
>  <Molecule>
COc1cc(C#N)c(O[C@H]2CC[C@@](C)(C(=O)O)CC2)cc1C(=O)N[C@@H]1[C@H]2CC[C@H](C2)[C@@H]1C(=O)NC(C)(C)CF

>  <Recorded number>
12

$$$$

a. COc1cc(Cl)c(O[C@H]2CC[C@@](C)(C(=O)O)CC2)cc1C(=O)N[C@@H]1[C@H]2CC[C@H](C2)[C@@H]1C(=O)NC12CC(F)(C1)C2
b. COc1cc(F)c(O[C@H]2CC[C@@H](C(=O)O)CC2)cc1C(=O)N[C@@H]1[C@H]2CC[C@H](C2)[C@@H]1C(=O)Nc1cccc(OC(F)(F)F)c1
Smaller hepatocyte CLint value? Options are a and b Answer with the label corresponding to your selection.
a
